Cited source: ChEMBL document CHEMBL1201862

tested on: HL-60; test: NCI tumour cell line growth inhibition, 48 h
Calls of active or inactive are those of the source. Rule as the data show it: active = GI50 up to about 1.1 µM and inactive = higher.
// allowed return values: label 1 for active, label 0 for inactive

Sample answers from the record:
Returns: the outcome recorded for O=C(N/N=C/c1cc(Cl)cc(Cl)c1O)c1ccccc1O in this assay.
label 1

What do you get for CC(C)(C)C1=Nc2c(Br)cc(C(C)(C)C)cc2C(C(F)(F)F)(C(F)(F)F)O1 ?
label 0

Record: CCCCn1c(CSc2ccc(Cl)cc2)c(C(=O)OCC)c2cc(OC)c(Br)cc21
label 0

Now consider a different compound.
For this compound, state the assay outcome: N=S(=O)(c1ccccc1)c1ccccc1
label 0

----------
test system: COLO 205; assay: NCI tumour cell line growth inhibition, 48 h
Activity calls are given as the source filed them. Cut-off read from the data, not from the text of the source: active = GI50 up to about 1.1 µM and inactive = higher.
Would you mind answering with one of these outcomes? YES = active, NO = inactive

What did this assay record as the result for NNc1ccccc1Cl ?
NO

Further cases:
Tell me the recorded outcome of this test for O=C1/C(=C/c2ccccc2)CCCC/C1=C\c1ccccc1 .
NO

Please give the result for COc1ccc(C)cc1NC(=S)N/N=C/c1ccc(SC)cc1 too.
NO

# repeat for CCN1CCC(O)(c2ccccc2)C(C(=O)c2ccccc2)C1 (stereo not drawn)
NO

Here is the next molecule: O=C1C(=O)N(c2cc(Cl)ccc2Cl)C(=O)C(=O)C1c1nc2ccccc2s1
NO

----------
test system: M14; assay: NCI tumour cell line growth inhibition, 48 h
Active and inactive are the calls of the source. Rule as the data show it: active = GI50 up to about 1.1 µM and inactive = higher.
ASSAY_ENDPOINT: GI50

Need GI50 of C=CCC1(CN(C)C)CC/C(=C\c2ccc3c(c2)OCO3)C1=O (centres undefined) , thanks.
56.9 µM (inactive)

Try O=C1OC(c2ccccc2)=N/C1=C/N1CCCC1C(=O)O (centres undefined) next.
> 100 µM (inactive)

Queued: CN/C(N)=N/N=C1/C(=O)Nc2ccccc21
> 100 µM (inactive)

Same question, CCOP(=O)(OCC)/C(=C/c1cccs1)CC(C)=O this time
> 100 µM (inactive)

Others:
Given the molecule [O-][N+]1=NC(c2ccccc2)=C1c1ccccc1 , what is its reported GI50?
> 50 µM (inactive)

Field entry: O=c1[nH]c(=O)n(CCOc2ccc(Cl)cc2)cc1Nc1ccccc1
> 100 µM (inactive)

Please answer likewise for CCOC(=O)c1c(SC(=O)c2ccc(C(C)(C)C)cc2)n(-c2ccccc2)c(=S)n(-c2ccccc2)c1=O
> 100 µM (inactive)

Same question for OCC(O)COc1c(Cl)cc(Cl)cc1Cl (centres undefined) please.
> 100 µM (inactive)

For O=c1cc(-c2ccccc2)oc2cc(Oc3nnnn3-c3ccccc3)ccc12 then?
36.5 µM (inactive)

----------
test system: SK-MEL-5; assay: NCI tumour cell line growth inhibition, 48 h
Active and inactive are the calls of the source. Rule as the data show it: active = GI50 up to about 1.1 µM and inactive = higher.
Hi! Could you answer with just one of these? true (active), false (inactive)

Check out these entries, answers already filled in.
Status in this test for C/C(=N\NC(=S)N1CCC1)c1ccccn1 ?
true

Can you handle CCCc1c(OC)c(=O)c2c(O)cc(OC)c3c4c(OC)cc(O)c5c(=O)c(OC)c(CCC)c(c1c23)c54 next?
false

Subsequent entry: CN(C)CCNC(=O)C(C)(C)Oc1ccc(C(=O)c2ccc(Cl)cc2)cc1Cl
false

Others:
What call does the record list for O=C1c2cc3c(cc2CC12Cc1cc4c(cc1C2=O)CCC4)CCCC3 (centres undefined) ?
false

----------
test system: U-251; test: NCI tumour cell line growth inhibition, 48 h
Counter-ions that a name gives are not always drawn. Activity calls are given as the source filed them. Cut-off read from the data, not from the text of the source: active = GI50 up to about 1.1 µM and inactive = higher.
ASSAY_ENDPOINT: GI50

Answered examples (5):
Reported GI50, molecule COC(NC(N)=O)C(=O)O (stereo unspecified) : ____
> 100 µM (inactive)

// query: CC(=O)N1C(=O)CC2(N=C(C)CC2=O)c2ccccc21 (stereo unspecified)
> 10 µM (inactive)

Try this molecule too: CCCCNC(=O)C1=C(C)NC(C)=C(C(=O)NCCCC)C1
> 100 µM (inactive)

Further, for N=S(=O)(c1ccccc1)c1ccccc1 ?
> 100 µM (inactive)

Also CCC/C(Cl)=N\OC(=O)Nc1cccc(C(F)(F)F)c1 ?
18.5 µM (inactive)

***
Quick one: GI50 for O=C(N/N=C1\CCc2ccccc2C1)N/N=C1\CCc2ccccc2C1 ?
> 10 µM (inactive)

For O=C1CC(c2n[nH]c3ccccc23)C(=O)N1c1ccccc1 (stereo unspecified) then?
> 100 µM (inactive)

And C#CCCOC(=O)CC1=C(C)/C(=C/c2ccc([S+](C)[O-])cc2)c2ccc(F)cc21 (stereo unspecified) ?
15 µM (inactive)

Further, for N=C(N)NS(=O)(=O)c1ccc(/N=N/c2c(O)c(C(=O)O)cc3ccccc23)cc1 ?
> 100 µM (inactive)

COC(=O)c1c(O)ccc2c1c1cc3ccccc3c(O)c1n2CCc1ccc(OC)c(OC)c1 ?
> 100 µM (inactive)

Try this molecule too: O=c1c(C(c2ccc(-c3ccccc3)cc2)c2c(O)oc3ccccc3c2=O)c(O)oc2ccccc12
44.8 µM (inactive)

Same thing, different molecule: COc1ccc2c(c1O)[C@@]13C=C(O)C(=O)C=C1[C@@H](C2)N(C)CC3
86.1 µM (inactive)

What would you report for CC(=O)C1=CC=C/C1=N\Nc1ccccc1 ?
2.97 µM (inactive)

Repeat with O=c1c(C(c2cc(OCc3ccccc3)cc(OCc3ccccc3)c2)c2c(O)oc3ccccc3c2=O)c(O)oc2ccccc12
4.78 µM (inactive)

Same lookup for O=C1c2cc3c(cc2CC12Cc1cc4c(cc1C2=O)CCC4)CCCC3 (stereo unspecified) , please.
89.1 µM (inactive)

Same lookup for CC(=O)N(O)CCCCCNC(=O)CCC(=O)N(O)CCCCCNC(=O)CCC(=O)N(O)CCCCCN [DEFEROXAMINE HYDROCHLORIDE] , please.
20.6 µM (inactive)

Also OCC(O)COc1c(Cl)cc(Cl)cc1Cl (stereo unspecified) , if possible.
> 100 µM (inactive)

Subsequent entry: N#C/C(=C1\OC(=N)C(c2ccccc2)C1=O)c1ccccc1 (stereo unspecified)
> 100 µM (inactive)

Now give it for C=CCN(c1cc(OCc2ccccc2)c2c(c(C)cn2S(=O)(=O)c2ccc([N+](=O)[O-])cc2)c1[N+](=O)[O-])S(C)(=O)=O too.
> 100 µM (inactive)

And what about the molecule Cc1ccc(S(=O)(=O)N/N=C(/CC(=O)c2c(C)[n+]([O-])c3ccccc3[n+]2[O-])C(=O)Nc2ccc(C)c(C)c2)cc1 ?
28.5 µM (inactive)

Here is the next molecule: CC1=Nc2c(ccc3c2C(=O)c2ccccc2C3=O)NC(c2ccncc2)C1 (stereo unspecified)
> 10 µM (inactive)

----------
system: EKVX; assay: NCI tumour cell line growth inhibition, 48 h
Active and inactive are the calls of the source. Cut-off read from the data, not from the text of the source: active = GI50 up to about 1.1 µM and inactive = higher.
Respond only with the outcome that fits, drawn from active, inactive

Some solved cases for reference:
Name the outcome recorded for CC(=O)O[C@H]1C(=O)[C@@]2(C)[C@H]([C@H](OC(=O)c3ccccc3)[C@]3(O)C[C@H](OC(=O)[C@H](O)[C@@H](NC(=O)c4ccccc4)c4ccccc4C)C(C)=C1C3(C)C)[C@]1(OC(C)=O)CO[C@@H]1C[C@@H]2O in the assay.
inactive

Request: CC1(C)CCCC2(C)C3C(O)CC2(C)C(O)C31 (centres undefined)
inactive

Query COc1ccc(-c2cc(=O)c3cc(C)c(C)c(C(=O)O)c3o2)cc1 next
inactive

More entries:
Hi team, can someone confirm the assay call for CCOC(=O)C(=CNC(Cc1c[nH]c2ccccc12)C(=O)OC)C(=O)OCC (centres undefined) ?
inactive

Cool, now O[C@@H]1C[C@H](Cl)c2c(Cl)sc(Cl)c21
inactive

Now try O=C1CCSSCCC(=O)Nc2ccccc2N1 .
inactive

Repeat with CC(C)(C)C1=Nc2c(Br)cc(C(C)(C)C)cc2C(C(F)(F)F)(C(F)(F)F)O1
inactive

Also, Cc1nc(Cl)c(CBr)c(Cl)n1 please.
inactive

Please give the result for CN/C(N)=N/N=C1/C(=O)Nc2ccccc21 too.
inactive

Entry to check: COC(=O)c1c(O)ccc2c1c1c(n2CCc2ccc(OC)c(OC)c2)C(=O)c2ccccc2C1=O
inactive

Field entry: COc1ccc(OC)c2cc(C3(C)SCCCS3)ccc12
inactive

Entry to check: COc1cccc2cc(C(=O)O)c(=O)oc12
inactive

Also, CN(C)CC1CCC(CN(C)C)C1=O (centres undefined) please.
inactive

Next entry: O=C(O)CC12C3C4C5C3C1C5C42 (centres undefined)
inactive

Likewise for O=C/C1=C/C2=Cc3ccccc3C=C(/C=C(/C=O)C1)C2 ?
inactive

Try O=c1c(C(c2cc(OCc3ccccc3)cc(OCc3ccccc3)c2)c2c(O)oc3ccccc3c2=O)c(O)oc2ccccc12 next.
inactive

Thanks! And CC(=O)OC[C@H]1CN(OC(C)=O)C[C@@H](n2cc(C)c(=O)[nH]c2=O)O1 ?
inactive

Also, Cc1ccc(N(C(=O)CC(=O)NN)C(=O)c2ccccc2Cl)cc1 please.
inactive
